Biological target: Acetylcholinesterase (Electrophorus electricus, UniProt O42275)
Sequence (O42275 whole entry): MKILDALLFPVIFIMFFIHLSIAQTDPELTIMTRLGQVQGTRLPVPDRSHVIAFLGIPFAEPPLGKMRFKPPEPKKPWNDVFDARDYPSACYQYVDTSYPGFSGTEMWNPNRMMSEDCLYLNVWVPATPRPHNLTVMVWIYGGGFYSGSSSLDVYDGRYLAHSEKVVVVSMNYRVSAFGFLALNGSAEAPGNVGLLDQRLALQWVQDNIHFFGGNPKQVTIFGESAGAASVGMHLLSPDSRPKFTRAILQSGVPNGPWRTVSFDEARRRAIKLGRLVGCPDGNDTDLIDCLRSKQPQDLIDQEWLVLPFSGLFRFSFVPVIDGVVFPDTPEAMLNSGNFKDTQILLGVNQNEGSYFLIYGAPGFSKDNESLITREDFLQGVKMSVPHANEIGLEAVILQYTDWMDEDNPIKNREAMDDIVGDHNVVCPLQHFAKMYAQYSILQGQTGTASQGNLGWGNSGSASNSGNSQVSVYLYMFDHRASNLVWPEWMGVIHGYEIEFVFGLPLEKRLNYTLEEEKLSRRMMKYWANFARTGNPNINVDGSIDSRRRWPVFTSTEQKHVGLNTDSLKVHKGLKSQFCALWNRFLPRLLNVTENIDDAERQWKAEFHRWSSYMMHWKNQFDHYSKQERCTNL
Test: Enzymatic Assay
Conditions: pH 8; 25 °C
quantityName: pIC50
Worth noting: pIC50 values are minus log10 of concentrations stated in mol/L.

Incoming: # query: pIC50 of entry `Cc1nc(-c2ccc(NC(=O)CN3CCN(c4ccccn4)CC3)cc2)cs1`
Outgoing: 7.29

Incoming: Request: `Cc1nc(-c2ccc(NC(=O)CN3CCN(C4CCCCC4)CC3)cc2)cs1`
Outgoing: 5.20

Incoming: Follow-up entry: `Cc1cccc(N2CCN(CC(=O)Nc3ccc(-c4csc(C)n4)cc3)CC2)c1`
Outgoing: 4.05

Incoming: Would you mind doing `Cc1nc(-c2ccc(NC(=O)CN3CCN(C)CC3)cc2)cs1` as well?
Outgoing: 5.15

Incoming: Item: `Cc1nc(-c2ccc(NC(=O)CN3CCN(C(=O)c4ccco4)CC3)cc2)cs1`
Outgoing: 6.57

Incoming: Next: `COc1ccccc1N1CCN(CC(=O)Nc2ccc(-c3csc(C)n3)cc2)CC1`
Outgoing: 5.07

Incoming: Another compound: `Cc1nc(-c2ccc(NC(=O)CN3CCN(Cc4ccccc4)CC3)cc2)cs1`
Outgoing: 7.96

Incoming: Another compound: `CCN1CCN(CC(=O)Nc2ccc(-c3csc(C)n3)cc2)CC1`
Outgoing: 4.93
